# System: HEK-293T
# test-description: Multiplex assay against HEK293T
# Type: toxicity, cell-based
# experimental-parameters: human, 12 h, 10 µM, compound concentration 10 uM, number of replicates 2
readout-kind: Population Membrane Permeable-Phenotype (%)

{"compound": "COCCN1CCN(CCn2ccc(Nc3ncc4c(n3)-c3c(nn(C)c3-c3ccccc3)C[C@H]4C)n2)CC1", "test-result": 2}
{"compound": "CCNc1ccc(-c2nn(-c3ccccc3C)c3c2C(C)Cc2nc(NC(=O)OC)sc2-3)cn1.O=C(O)C(F)(F)F (centres undefined)", "test-result": 3}
{"compound": "NCC1CCC(CNc2nc(NCc3ccccc3OC(F)(F)F)ncc2[N+](=O)[O-])CC1 (centres undefined)", "test-result": 1}
{"compound": "N=C(N)NCCC[C@H](NC(=O)COCC(c1ccccc1)c1ccccc1)C(=O)O.O=C(O)C(F)(F)F", "test-result": 2}

----------
# Test system: HEK-293T
# test-description: Multiplex assay against HEK293T
# Type: toxicity, cell-based
# experimental-parameters: human, 12 h, 1 µM, compound concentration 1 uM, number of replicates 2
readout-kind: Population Membrane Permeable-Phenotype (%)

{"molecule": "CCCNc1ccc2ncc(-c3ccncc3)n2n1", "test-result": "2%"}
{"molecule": "CC(C)S(=O)(=O)c1ccccc1Nc1nc(N[C@@H]2CCCN(CCCCCCCNC(=O)COc3cccc4c3C(=O)N(C3CCC(=O)N(C)C3=O)C4=O)C2)ncc1Cl (some centres not stated)", "test-result": "0%"}
{"molecule": "CN[C@@H]1CC[C@@H](c2ccc(Cl)c(Cl)c2)c2ccccc21.Cl", "test-result": "3%"}
{"molecule": "CC(C)N(CCCCOCC(=O)NS(C)(=O)=O)c1cnc(-c2ccccc2)c(-c2ccccc2)n1", "test-result": "2%"}
{"molecule": "CCN1CCN(Cc2ccc(C(=O)Nc3ccc(C)c(Oc4ccc5c(c4)CC(=O)N5)c3)cc2C(F)(F)F)CC1.Cl.Cl", "test-result": "2%"}
{"molecule": "CC1(C)C(=O)N([C@H]2CCc3c(O)cccc32)c2nc(Nc3cccc(CN4CCCC4)c3)ncc21", "test-result": "1%"}
{"molecule": "COCCN1CCN(CCn2ccc(Nc3ncc4c(n3)-c3c(nn(C)c3-c3ccccc3)C[C@H]4C)n2)CC1", "test-result": "3%"}
{"molecule": "C[C@H](N)Cn1ccc2cc(F)c(Cl)cc21.O=C(O)/C=C/C(=O)O", "test-result": "1%"}
{"molecule": "CCNc1ccc(-c2nn(-c3ccccc3C)c3c2C(C)Cc2nc(NC(=O)OC)sc2-3)cn1.O=C(O)C(F)(F)F (configuration not stated)", "test-result": "2%"}
{"molecule": "CN(C)CC#Cc1ccc2[nH]c3c(c2c1)-c1nc(N)ncc1CCC3", "test-result": "8%"}
{"molecule": "Cc1c(C(=O)Nc2ccc(N3C[C@@H](C)O[C@@H](C)C3)nc2)cccc1-c1ccc(OC(F)(F)F)cc1", "test-result": "3%"}
{"molecule": "CN(C)CCN(Cc1ccc(-c2ccc(CNCCc3ccccc3)cc2)cc1)C(=O)CCC1CCCC1.Cl.Cl", "test-result": "2%"}

----------
# System: Fibroblast
# test-description: Multiplex assay against human fibroblast
# Format: toxicity, cell-based
# experimental-parameters: 12 h, 1 µM, compound concentration 1 uM, number of replicates 2
Label Condition not met if Population Fragmented Nuclei (%) falls below 9%; label Condition met in every other case.

{"molecule": "C[C@H](N)Cn1ccc2cc(F)c(Cl)cc21.O=C(O)/C=C/C(=O)O", "label-value": "Condition met"}
{"molecule": "Cc1cc(C2CCCNC2)ccc1Nc1ncc(Br)c(NCc2cccc3c2C(C)(C)C(=O)N3)n1 (configuration not stated)", "label-value": "Condition met"}
{"molecule": "Cn1ncc(NC(=O)c2nc(-c3c(F)cccc3F)sc2N)c1N1CC[C@@H](N)[C@H](F)CC1", "label-value": "Condition met"}
{"molecule": "CS(=O)(=O)c1ccc(C(=O)Nc2cccc(COc3ccc(Br)cc3CN3CC[C@@H](O)C3)c2)c(Cl)c1.O=CO", "label-value": "Condition not met"}
{"molecule": "Cc1ccc2c(c1CCC(=O)O)CC[C@@H](NS(=O)(=O)c1ccc(Cl)cc1)C2", "label-value": "Condition not met"}
{"molecule": "CS(=O)(=O)c1ccc(NC(=O)c2cccc(COc3ccc(Br)cc3CNCCO)c2)c(Cl)c1.O=CO", "label-value": "Condition met"}

----------
# Test system: Fibroblast
# test-description: Multiplex assay against human fibroblast
# Format: toxicity, cell-based
# experimental-parameters: 12 h, 10 µM, compound concentration 10 uM, number of replicates 2
readout-kind: Population Hoechst High Intensity Objects (%)

{"compound": "COc1nc2ccc([C@@](O)(c3ccc(Cl)cc3)c3cncn3C)cc2c(Cl)c1Cc1ccc(-n2cccn2)cc1 [JNJ-53721590]", "test-result": 0}
{"compound": "C[C@@H]1CC[C@@]2(OC1)O[C@H]1[C@@H](O)[C@H]3[C@@H]4CC[C@H]5C[C@@H](O[C@@H]6O[C@H](CO)[C@H](O[C@@H]7O[C@H](CO)C(O)[C@H](O[C@@H]8OC[C@@H](O)[C@H](O)[C@H]8O)[C@H]7O[C@@H]7O[C@H](CO)[C@H](O)[C@H](O[C@@H]8O[C@H](CO)[C@@H](O)[C@H](O)[C@H]8O)[C@H]7O)[C@H](O)[C@H]6O)[C@H](O)C[C@]5(C)[C@H]4CC[C@]3(C)[C@H]1[C@@H]2C (stereo partly specified) [DIGITONIN]", "test-result": 0}
{"compound": "CCCNc1ccc2ncc(-c3ccncc3)n2n1", "test-result": 0}
{"compound": "CN1CCN(c2ccc(-n3cc(-c4ccncc4OCC4CCNCC4)cn3)cc2)CC1", "test-result": 0}
{"compound": "CCc1cnn2c(NCc3ccc[n+]([O-])c3)cc(N3CCCCC3CCO)nc12 (stereo unspecified)", "test-result": 0}
{"compound": "C[C@H](N)Cn1ccc2cc(F)c(Cl)cc21.O=C(O)/C=C/C(=O)O", "test-result": 0}

----------
# Tested on: Fibroblast
# test-description: Multiplex assay against human fibroblast
# Assay type: toxicity, cell-based
# experimental-parameters: 24 h, 1 µM, compound concentration 1 uM, number of replicates 2
Recorded Population Mitochondria Different-Phenotype (%) for the following compounds
readout-kind: Population Mitochondria Different-Phenotype (%)

{"compound": "CC(C)N(CCCCOCC(=O)NS(C)(=O)=O)c1cnc(-c2ccccc2)c(-c2ccccc2)n1 [SELEXIPAG]", "unit-of-measurement": "%", "test-result": 0}
{"compound": "COCCN1CCN(CCn2ccc(Nc3ncc4c(n3)-c3c(nn(C)c3-c3ccccc3)C[C@H]4C)n2)CC1", "unit-of-measurement": "%", "test-result": 0}
{"compound": "CCn1c(-c2nonc2N)nc2cncc(C(=O)N3CC[C@H](N)C3)c21.Cl", "unit-of-measurement": "%", "test-result": 0}
{"compound": "COc1ncc(-c2cc(-c3ncc(CN4C[C@@H](C)O[C@@H](C)C4)o3)c3cn[nH]c3c2)cc1NS(C)(=O)=O", "unit-of-measurement": "%", "test-result": 0}
{"compound": "COc1ccc(-c2cc3c(C)nc(N)nc3n([C@H]3CC[C@H](OCCO)CC3)c2=O)cn1 [PF-04691502]", "unit-of-measurement": "%", "test-result": 1}
{"compound": "NCC1CCC(CNc2nc(NCc3ccccc3OC(F)(F)F)ncc2[N+](=O)[O-])CC1 (centres undefined)", "unit-of-measurement": "%", "test-result": 8}
{"compound": "C[C@@H](OC[C@@]1(c2ccccc2)CC[C@]2(CCC(=O)N2)CN1)c1cc(C(F)(F)F)cc(C(F)(F)F)c1 [ROLAPITANT]", "unit-of-measurement": "%", "test-result": 1}
{"compound": "Cc1ccc(C(=O)Nc2cc(N3CCN(C)CC3)cc(C(F)(F)F)c2)cc1-n1cc(-c2cnn(C)c2C)nn1.Cl", "unit-of-measurement": "%", "test-result": 7}
{"compound": "Cc1onc(-c2ccccc2Cl)c1C(=O)N(C)c1ccc(Cl)cc1", "unit-of-measurement": "%", "test-result": 0}

----------
# Test system: HEK-293T
# test-description: Multiplex assay against HEK293T
# Format: toxicity, cell-based
# experimental-parameters: human, 12 h, 1 µM, compound concentration 1 uM, number of replicates 2
Use True when the recorded Population Hoechst High Intensity Objects (%) is no lower than 8%; use False when it is lower.

{"molecule": "COc1cc(OC)cc(C(=O)NNC(=O)Nc2cccc3ccccc23)c1", "target-of-assay": "HEK-293T", "label-value": "False"}
{"molecule": "CN1CCCN(C(=O)c2cccc(-c3ccc(/C=C4/C(=O)Nc5ccc(Cl)cc54)o3)c2)CC1", "target-of-assay": "HEK-293T", "label-value": "False"}
{"molecule": "COc1ncc(-c2cc(-c3ncc(CN4C[C@@H](C)O[C@@H](C)C4)o3)c3cn[nH]c3c2)cc1NS(C)(=O)=O", "target-of-assay": "HEK-293T", "label-value": "True"}
{"molecule": "CNC(=O)c1c(F)cccc1Nc1nc(Nc2cc3c(cc2OC)CCN3C(=O)CN(C)C)nc2[nH]ccc12", "target-of-assay": "HEK-293T", "label-value": "True"}
{"molecule": "Cc1onc(-c2ccccc2Cl)c1C(=O)N(C)c1ccc(Cl)cc1", "target-of-assay": "HEK-293T", "label-value": "False"}
{"molecule": "CC(C)S(=O)(=O)c1ccccc1Nc1nc(N[C@@H]2CCCN(CCCCCCCNC(=O)COc3cccc4c3C(=O)N(C3CCC(=O)N(C)C3=O)C4=O)C2)ncc1Cl (some centres undefined)", "target-of-assay": "HEK-293T", "label-value": "True"}
{"molecule": "COc1nc2ccc([C@@](O)(c3ccc(Cl)cc3)c3cncn3C)cc2c(Cl)c1Cc1ccc(-n2cccn2)cc1 [JNJ-53721590]", "target-of-assay": "HEK-293T", "label-value": "False"}
{"molecule": "Cc1ccc2c(c1CCC(=O)O)CC[C@@H](NS(=O)(=O)c1ccc(Cl)cc1)C2 [TERUTROBAN]", "target-of-assay": "HEK-293T", "label-value": "False"}

All figures here come from ChEMBL document CHEMBL5303300.
